Reported GI50 values follow for various compounds
Test system: T-Rex 293 cell line SC3 cells lacking increased expression of androgen receptor protein
Test: Cellular growth inhibition, T-Rex 293 SC3 cells without doxycycline, CellTiter-Glo
Type: cell-based
Settings: 72 h, T-Rex 293 SC3 cells not exposed to doxycycline, CellTiter-Glo 2.0

compound: Cc1sc2c(c1C)C(c1ccc(O[C@@H]3CC[C@@]4(CCCN(c5ncc(C(=O)N[C@H]6C(C)(C)[C@H](Oc7ccc(C#N)c(Cl)c7)C6(C)C)cn5)C4)C3)cc1)=N[C@@H](Cc1ncco1)c1nnc(C)n1-2
target under test: T-Rex 293 cell line SC3 cells lacking increased expression of androgen receptor protein
measured: > 3 µM
//
compound: Cc1sc2c(c1C)C(c1ccc(Cl)cc1)=N[C@H](CC(=O)NCCOCCOCCOCCOCCOCCOCCOC1CCN(c3ncc(C(=O)N[C@H]4C(C)(C)[C@H](Oc5ccc(C#N)c(Cl)c5)C4(C)C)cn3)CC1)c1nnc(C)n1-2
target under test: T-Rex 293 cell line SC3 cells lacking increased expression of androgen receptor protein
measured: 1.5 to 3 µM
//
compound: Cc1sc2c(c1C)C(c1ccc(O[C@H]3CC[C@@]4(CCCN(c5ncc(C(=O)N[C@H]6C(C)(C)[C@H](Oc7ccc(C#N)c(Cl)c7)C6(C)C)cn5)C4)CC3)cc1)=N[C@@H](Cc1ncco1)c1nnc(C)n1-2
target under test: T-Rex 293 cell line SC3 cells lacking increased expression of androgen receptor protein
measured: 0.5 to 1.5 µM
//
compound: Cc1sc2c(c1C)C(c1ccc([C@H]3C[C@@H](C4CCN(c5ncc(C(=O)N[C@H]6C(C)(C)[C@H](Oc7ccc(C#N)c(Cl)c7)C6(C)C)cn5)CC4)C3)cc1)=N[C@@H](Cc1ncco1)c1nnc(C)n1-2
target under test: T-Rex 293 cell line SC3 cells lacking increased expression of androgen receptor protein
measured: > 3 µM
//
compound: CCNC(=O)C[C@@H]1N=C(c2ccc(OCCOC3CCN(c4ncc(C(=O)N[C@H]5C(C)(C)[C@H](Oc6ccc(C#N)c(Cl)c6)C5(C)C)cn4)CC3)c(F)c2F)c2c(sc(C)c2C)-n2c(C)nnc21
target under test: T-Rex 293 cell line SC3 cells lacking increased expression of androgen receptor protein
measured: 0.5 to 1.5 µM

Requested field: GI50. Item: Cc1sc2c(c1C)C(c1ccc(O[C@H]3CC[C@]4(CCCN(c5ncc(C(=O)N[C@H]6C(C)(C)[C@H](Oc7ccc(C#N)c(Cl)c7)C6(C)C)cn5)C4)CC3)cc1)=N[C@@H](Cc1ncco1)c1nnc(C)n1-2
< 0.5 µM

Would you kindly repeat that for Cc1sc2c(c1C)C(c1ccc([C@H]3CC[C@]4(C3)CN(c3ncc(C(=O)N[C@H]5C(C)(C)[C@H](Oc6ccc(C#N)c(Cl)c6)C5(C)C)cn3)CCO4)cc1)=N[C@@H](Cc1ncco1)c1nnc(C)n1-2 ?
> 3 µM

Next: Cc1sc2c(c1C)C(c1ccc(CN(C)C(=O)[C@@H]3CC[C@H](c4ncc(C(=O)N[C@H]5C(C)(C)[C@H](Oc6ccc(C#N)c(Cl)c6)C5(C)C)cn4)C3)cc1)=N[C@@H](Cc1ncco1)c1nnc(C)n1-2
> 3 µM

Subsequent entry: Cc1sc2c(c1C)C(c1ccc(C3CC(N4CCN(c5ncc(C(=O)N[C@H]6C(C)(C)[C@H](Oc7ccc(C#N)c(Cl)c7)C6(C)C)cn5)CC4)C3)cc1)=N[C@@H](C)c1nnc(C)n1-2 (some centres unmarked)
0.5 to 1.5 µM

Next up: Cc1sc2c(c1C)C(c1ccc(C(=O)N3CCN(CCc4ncc(C(=O)N[C@H]5C(C)(C)[C@H](Oc6ccc(C#N)c(Cl)c6)C5(C)C)cn4)CC3)cc1)=N[C@@H](Cc1ncco1)c1nnc(C)n1-2
> 3 µM

Then what about the compound Cc1sc2c(c1C)C(c1ccc(N3CC[C@@H](CNc4ncc(C(=O)N[C@H]5C(C)(C)[C@H](Oc6ccc(C#N)c(Cl)c6)C5(C)C)cn4)C3)cc1)=NC(Cc1ncco1)c1nnc(C)n1-2 (some centres unmarked) ?
< 0.5 µM

Taken from patent US20260062422A1.
